Listed here: molecules with reported pKi for Carbonic anhydrase 1 (Homo sapiens, UniProt P00915).
Recall that pKi is obtained by taking minus log10 of the concentration measured in molar.

NC(=O)c1ccc(-c2ccc(S(N)(=O)=O)cc2)cc1	7.17

Prompt line: Recall the recorded pKi for COC(=O)c1ccc(Cc2ccc(-c3ccc(S(N)(=O)=O)cc3)cc2)cc1 with Carbonic anhydrase 1 (Homo sapiens, UniProt P00915) and state it.
Sequence (P00915 whole entry): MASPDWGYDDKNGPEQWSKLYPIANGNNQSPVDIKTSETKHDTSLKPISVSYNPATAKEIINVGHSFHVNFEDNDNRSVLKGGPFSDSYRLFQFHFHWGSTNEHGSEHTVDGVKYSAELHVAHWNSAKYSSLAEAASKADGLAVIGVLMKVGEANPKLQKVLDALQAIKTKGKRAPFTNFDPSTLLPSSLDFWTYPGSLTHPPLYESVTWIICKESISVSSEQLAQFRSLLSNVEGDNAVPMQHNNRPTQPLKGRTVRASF
Response line: 6.91

---

Listed compounds paired with reported Ki
target: Carbonic anhydrase 2 (Homo sapiens)
Numbers only here, please. The scale is nM.

NS(=O)(=O)c1ccc(-c2ccc(Cc3ccc(C(=O)O)cc3)cc2)cc1	6.9

Prompt line: Tell me reported Ki for NC(=O)c1ccc(-c2ccc(S(N)(=O)=O)cc2)cc1 , tested with Carbonic anhydrase 2 (Homo sapiens).
Response line: 5.3

Prompt line: For the record COC(=O)c1ccc(-c2ccc(S(N)(=O)=O)cc2)cc1 , what value of Ki is listed for Carbonic anhydrase 2 (Homo sapiens)?
Response line: 9

Prompt line: Missing value: Ki, Carbonic anhydrase 2 (Homo sapiens), entry NS(=O)(=O)c1ccc(-c2ccc(Cc3ccccc3)cc2)cc1 . Fill in?
Response line: 454

Prompt line: GET /values?readout=Ki&system=Carbonic anhydrase 2 (Homo sapiens)&item= Nc1ccc(Cc2ccc(-c3ccc(S(N)(=O)=O)cc3)cc2)cc1
Response line: 5.2

Prompt line: Any idea what Ki came out for NS(=O)(=O)c1ccc(-c2ccc(C(O)c3ccc([N+](=O)[O-])cc3)cc2)cc1 (centres undefined) on Carbonic anhydrase 2 (Homo sapiens)?
Response line: 5.9

Prompt line: For Carbonic anhydrase 2 (Homo sapiens), provide Ki of CC(C)(C)OC(=O)c1ccc(-c2ccc(S(N)(=O)=O)cc2)cc1 please.
Response line: 42

Prompt line: Form field - read-out: Ki; system: Carbonic anhydrase 2 (Homo sapiens); submitted item: COC(=O)c1ccc(Cc2ccc(-c3ccc(S(N)(=O)=O)cc3)cc2)cc1
Response line: 50.6

Prompt line: Notebook: pull reported Ki for Carbonic anhydrase 2 (Homo sapiens), entry COC(=O)c1ccc(C(=O)c2ccc(-c3ccc(S(N)(=O)=O)cc3)cc2)cc1
Response line: 7.8

---

molecular target: Carbonic anhydrase 1 (Homo sapiens, UniProt P00915)
Please use Met for Ki under 80 nM and Not met for everything else, ties included.

The examples below pair each entry with its known result.
NS(=O)(=O)c1ccc(-c2ccc(Cc3ccccc3)cc2)cc1	Met
NS(=O)(=O)c1ccc(-c2ccc(C(=O)O)cc2)cc1	Not met
NS(=O)(=O)c1ccc(-c2ccc(C(=O)NCCO)cc2)cc1	Met
Nc1ccc(Cc2ccc(-c3ccc(S(N)(=O)=O)cc3)cc2)cc1	Not met
COC(=O)c1ccc(C(=O)c2ccc(-c3ccc(S(N)(=O)=O)cc3)cc2)cc1	Met

Prompt line: Is 80 nM strictly greater than the compound's reported Ki? compound: COC(=O)c1ccc(C(O)c2ccc(-c3ccc(S(N)(=O)=O)cc3)cc2)cc1 (configuration not stated)
Response line: Met
